The reported measurements were obtained from ChEMBL document CHEMBL5352422.

# methodSummary: Stability of the compound in stimulated gastric fluid at 40 mg/ml pepsin by measuring observed rate constant measured upto 60 mins by HPLC analysis
# Assay type: ADME
# assaySetup: simulated gi fluid, 1 h
propertyLabel: Kobs (h⁻¹)
Report the value in h⁻¹ with no unit label.

1. C#CCSC[C@H]1NC(=O)[C@H](Cc2ccc(OC(C)=O)c(OC(C)=O)c2)NC1=O :: 0.012

# context switch: different compound, same Kobs
Qu. Kobs for C=CCSC[C@H]1NC(=O)[C@H](Cc2ccc(OC(C)=O)c(OC(C)=O)c2)NC1=O ?
Ans. 0.031

====

The compounds listed here are annotated with their Papp at 18 h, 500 µM.
# methodSummary: Effective permeability of compound at 500 uM incubated for 18 hrs by […] method
# Assay type: ADME
# assaySetup: read-out: Peff
Where a SMILES comes first, the peptide text is derived from it. [ ]: non-standard residue; d: D form. Dopa = N[C@@H](Cc1ccc(O)c(O)c1)C(=O)O
Report the value in ×10⁻⁶ cm/s with no unit label.

Some entries whose results are on file:
1) COC(=O)[C@H](Cc1ccc(O)c(O)c1)NC(=O)[C@H](CCSC)NC(C)=O (Ac-Met-[Dopa]-OMe) :: 1.42
2) N[C@@H](Cc1ccc(O)c(O)c1)C(=O)O :: 0.75
3) C#CCSC[C@H]1NC(=O)[C@H](Cc2ccc(OC(C)=O)c(OC(C)=O)c2)NC1=O :: 4.88

Qu. Papp at 18 h, 500 µM for C=CCSC[C@H]1NC(=O)[C@H](Cc2ccc(OC(C)=O)c(OC(C)=O)c2)NC1=O ?
Ans. 2.42

====

# methodSummary: Partition coefficient, logP of the compound by HPLC-UV analysis
# Assay type: physicochemical
# assaySetup: octanol/water
propertyLabel: logP
Respond using a number only.

1) C=CCSC[C@H]1NC(=O)[C@H](Cc2ccc(OC(C)=O)c(OC(C)=O)c2)NC1=O :: 0.68

# context switch: different molecule, same logP
Qu. logP for C#CCSC[C@H]1NC(=O)[C@H](Cc2ccc(OC(C)=O)c(OC(C)=O)c2)NC1=O ?
Ans. 0.35

====

The compounds listed here are annotated with their half-life.
# methodSummary: Stability of the compound in stimulated intestinal fluid at 10 mg/ml pancreatin by measuring half life measured upto 180 mins by HPLC analysis
# Format: ADME
# assaySetup: simulated intestinal fluid with pancreatin

1. C=CCSC[C@H]1NC(=O)[C@H](Cc2ccc(OC(C)=O)c(OC(C)=O)c2)NC1=O :: 0.68 h

Qu. half-life for C#CCSC[C@H]1NC(=O)[C@H](Cc2ccc(OC(C)=O)c(OC(C)=O)c2)NC1=O ?
Ans. 3.51 h

====

The compounds listed here are annotated with their Kobs.
# methodSummary: Stability in human plasma assessed as observed rate constant by HPLC method
# Type: ADME, cell-free
Report the value in h⁻¹ with no unit label.

1. C#CCSC[C@H]1NC(=O)[C@H](Cc2ccc(OC(C)=O)c(OC(C)=O)c2)NC1=O :: 0.332

Qu. Kobs for C=CCSC[C@H]1NC(=O)[C@H](Cc2ccc(OC(C)=O)c(OC(C)=O)c2)NC1=O ?
Ans. 7.22

====

The compounds listed here are annotated with their Kobs.
# methodSummary: Stability of the compound in phosphate buffer assessed as chemical hydrolysis by measuring observed rate constant at pH 7.4
# Format: physicochemical
Phrase the answer as number then unit, nothing more needed.

Qu. Kobs for C#CCSC[C@H]1NC(=O)[C@H](Cc2ccc(OC(C)=O)c(OC(C)=O)c2)NC1=O ?
Ans. 0.015 h⁻¹

Qu. And C=CCSC[C@H]1NC(=O)[C@H](Cc2ccc(OC(C)=O)c(OC(C)=O)c2)NC1=O ?
Ans. 0.022 h⁻¹

====

# methodSummary: Stability of the compound in stimulated intestinal fluid at 40 mg/ml pancreatin by measuring half life measured upto 180 mins by HPLC analysis
# Type: ADME
# assaySetup: simulated intestinal fluid with pancreatin
propertyLabel: half-life
Phrase the answer as number then unit, nothing more needed.

Qu. half-life for C#CCSC[C@H]1NC(=O)[C@H](Cc2ccc(OC(C)=O)c(OC(C)=O)c2)NC1=O ?
Ans. 2.57 h

====

# methodSummary: Stability of the compound in hydrochloric acid buffer assessed as chemical hydrolysis by measuring observed rate constant at pH 1.2
# Assay type: physicochemical
propertyLabel: Kobs (h⁻¹)
Report the value in h⁻¹ with no unit label.

1) C#CCSC[C@H]1NC(=O)[C@H](Cc2ccc(OC(C)=O)c(OC(C)=O)c2)NC1=O :: 0.005

Qu. Kobs for C=CCSC[C@H]1NC(=O)[C@H](Cc2ccc(OC(C)=O)c(OC(C)=O)c2)NC1=O ?
Ans. 0.037

====

The molecules listed here are annotated with their half-life.
# methodSummary: Stability of the compound in stimulated gastric fluid at 10 mg/ml pepsin by measuring half life measured upto 60 mins by HPLC analysis
# Assay type: ADME
# assaySetup: simulated gastric fluid with pepsin
Report the value in days with no unit label.

1) C#CCSC[C@H]1NC(=O)[C@H](Cc2ccc(OC(C)=O)c(OC(C)=O)c2)NC1=O :: 3.79

# context switch: different molecule, same half-life
Qu. half-life for C=CCSC[C@H]1NC(=O)[C@H](Cc2ccc(OC(C)=O)c(OC(C)=O)c2)NC1=O ?
Ans. 1.01

====

# methodSummary: Stability of the compound in stimulated intestinal fluid at 10 mg/ml pancreatin by measuring observed rate constant measured upto 180 mins by HPLC analysis
# Type: ADME
# assaySetup: simulated gi fluid, 3 h
The compounds listed here are annotated with their Kobs.
Report the value in h⁻¹ with no unit label.

1. C#CCSC[C@H]1NC(=O)[C@H](Cc2ccc(OC(C)=O)c(OC(C)=O)c2)NC1=O :: 0.198

# context switch: different compound, same Kobs
Qu. Kobs for C=CCSC[C@H]1NC(=O)[C@H](Cc2ccc(OC(C)=O)c(OC(C)=O)c2)NC1=O ?
Ans. 1.03

====

# methodSummary: Stability of the compound in hydrochloric acid buffer assessed as chemical hydrolysis by measuring half life at pH 1.2
# Type: physicochemical
The compounds listed here are annotated with their half-life.
Report the value in h with no unit label.

1. C=CCSC[C@H]1NC(=O)[C@H](Cc2ccc(OC(C)=O)c(OC(C)=O)c2)NC1=O :: 18.9

# context switch: different compound, same half-life
Qu. half-life for C#CCSC[C@H]1NC(=O)[C@H](Cc2ccc(OC(C)=O)c(OC(C)=O)c2)NC1=O ?
Ans. 134

====

# methodSummary: Stability of the compound in stimulated gastric fluid at 10 mg/ml pepsin by measuring observed rate constant measured upto 60 mins by HPLC analysis
# Format: ADME
# assaySetup: simulated gi fluid, 1 h
propertyLabel: Kobs (h⁻¹)
Report the value in h⁻¹ with no unit label.

1. C#CCSC[C@H]1NC(=O)[C@H](Cc2ccc(OC(C)=O)c(OC(C)=O)c2)NC1=O :: 0.008

# context switch: different compound, same Kobs
Qu. Kobs for C=CCSC[C@H]1NC(=O)[C@H](Cc2ccc(OC(C)=O)c(OC(C)=O)c2)NC1=O ?
Ans. 0.029

====

The molecules listed here are annotated with their half-life.
# methodSummary: Stability of the compound in phosphate buffer assessed as chemical hydrolysis by measuring half life at pH 7.4
# Type: physicochemical
Phrase the answer as number then unit, nothing more needed.

1) C=CCSC[C@H]1NC(=O)[C@H](Cc2ccc(OC(C)=O)c(OC(C)=O)c2)NC1=O :: 1860 min

Qu. half-life for C#CCSC[C@H]1NC(=O)[C@H](Cc2ccc(OC(C)=O)c(OC(C)=O)c2)NC1=O ?
Ans. 2850 min

====

# methodSummary: Stability of the compound in stimulated gastric fluid at 40 mg/ml pepsin by measuring half life measured upto 60 mins by HPLC analysis
# Format: ADME
# assaySetup: simulated gastric fluid with pepsin
The molecules listed here are annotated with their half-life.
Report the value in h with no unit label.

1) C=CCSC[C@H]1NC(=O)[C@H](Cc2ccc(OC(C)=O)c(OC(C)=O)c2)NC1=O :: 22.4

# context switch: different molecule, same half-life
Qu. half-life for C#CCSC[C@H]1NC(=O)[C@H](Cc2ccc(OC(C)=O)c(OC(C)=O)c2)NC1=O ?
Ans. 57.1

====

# methodSummary: Stability in human plasma assessed as half life by HPLC method
# Type: ADME, cell-free
The compounds listed here are annotated with their half-life.
Report the value in h with no unit label.

1. C#CCSC[C@H]1NC(=O)[C@H](Cc2ccc(OC(C)=O)c(OC(C)=O)c2)NC1=O :: 2.09

Qu. half-life for C=CCSC[C@H]1NC(=O)[C@H](Cc2ccc(OC(C)=O)c(OC(C)=O)c2)NC1=O ?
Ans. 0.096

====

# methodSummary: Apparent permeability of the compound across apical side to basolateral side in human Caco-2 cells measured upto 180 mins by HPLC analysis
# Type: ADME, cell-based
Where a SMILES comes first, the peptide text is derived from it. [ ]: non-standard residue; d: D form. Dopa = N[C@@H](Cc1ccc(O)c(O)c1)C(=O)O
The molecules listed here are annotated with their Papp A→B at 3 h.
Report the value in ×10⁻⁶ cm/s with no unit label.

1. COC(=O)[C@H](Cc1ccc(O)c(O)c1)NC(=O)[C@H](CCSC)NC(C)=O (Ac-Met-[Dopa]-OMe) :: 3.5
2. C=CCSC[C@H]1NC(=O)[C@H](Cc2ccc(OC(C)=O)c(OC(C)=O)c2)NC1=O :: 7.5
3. NC(=O)N1c2ccccc2C=Cc2ccccc21 [CARBAMAZEPINE] :: 50.3
4. N[C@@H](Cc1ccc(O)c(O)c1)C(=O)O :: 0.82
5. C#CCSC[C@H]1NC(=O)[C@H](Cc2ccc(OC(C)=O)c(OC(C)=O)c2)NC1=O :: 17.4

# context switch: different molecule, same Papp A→B at 3 h
Qu. Papp A→B at 3 h for COCCc1ccc(OCC(O)CNC(C)C)cc1 (stereo unspecified) ?
Ans. 27.4
